Biological target: human TWIK2 channel, functional mutant muTWIK2 Y308A/I289A/L290A [人源TWIK2-Y308A/I289A/L290A, muTWIK2] (Homo sapiens, UniProt Q9Y257, I289A/L290A/Y308A)
Construct: GFP (green fluorescent protein label of the plasmid)
Sequence (Q9Y257 1-313 I289A/L290A/Y308A): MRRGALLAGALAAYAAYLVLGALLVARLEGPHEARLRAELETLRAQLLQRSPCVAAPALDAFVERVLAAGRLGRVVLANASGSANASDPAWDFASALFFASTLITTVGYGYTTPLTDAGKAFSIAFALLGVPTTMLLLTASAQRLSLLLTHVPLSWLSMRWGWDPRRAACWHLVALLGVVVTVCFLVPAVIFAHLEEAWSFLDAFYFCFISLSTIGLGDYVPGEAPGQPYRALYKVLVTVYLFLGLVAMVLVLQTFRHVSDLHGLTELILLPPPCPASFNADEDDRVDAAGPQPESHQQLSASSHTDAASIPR
Experiment: Whole-cell patch clamp of transfected COS-7 cells, TWIK2 (muTWIK2) current
Details: inhibition of TWIK2 channel; dose-response curve on muTWIK2, COS-7 cells
READOUT_KIND: IC50

COc1ccccc1C(=O)Nc1cccc(NC(=O)c2cccc(C)c2)c1 [ML365, 2-甲氧基-N-[3-[(3-甲基苯甲酰基)氨基]苯基]苯甲酰胺] ... 4.07 µM
